Tested on: TK-10
Test: NCI tumour cell line growth inhibition, 48 h
The source made the active and inactive calls. Cut-off read from the data, not from the text of the source: active = GI50 up to about 1.1 µM and inactive = higher.
READOUT KIND: GI50

Past entries and their recorded results:
COMPOUND	GI50
CCCCC/C=C1\CC(CO)(COC(=O)CC(C(C)C)C(C)C)OC1=O (stereo not drawn)	14.2 µM (inactive)
CO[C@@H]1C=C[C@@]23c4cc5c(cc4C(=O)O[C@H]2CN(C)[C@H]3C1)OCO5	> 100 µM (inactive)

Now take the following compound into account.
### Prompt Field request: GI50 | item: Nc1nc(=O)c2cc(NCc3ccc(C(=O)NC(CCC(=O)O)C(=O)O)cc3)ccc2[nH]1 (stereo not drawn)
### Response > 100 µM (inactive)

###

Tested on: DMS-273
Assay: NCI tumour cell line growth inhibition, 48 h
The source made the active and inactive calls. Cut-off read from the data, not from the text of the source: active = GI50 up to about 1.1 µM and inactive = higher.
READOUT KIND: GI50

COMPOUND	RESULT
c1ccc(CN(Cn2cccn2)Cn2cccn2)nc1	61.7 µM (inactive)
COC(=O)/C(=N\N)C(C(=O)C(=O)Nc1nnc(S)[nH]1)c1nc2ccc([N+](=O)[O-])cc2nc1O (centres undefined)	> 100 µM (inactive)
NS(=O)(=O)OCCCCCCCOS(N)(=O)=O	68.7 µM (inactive)

Now for the compound whose GI50 we want.
### Prompt Suppose we examine the compound CCOC(=O)C1=C(OC(OCC)C(C)[Se]c2ccccc2)CCC1 (centres undefined) ; what GI50 value has been reported?
### Response 10.3 µM (inactive)

###

Tested on: IGROV-1
Assay: NCI tumour cell line growth inhibition, 48 h
Activity calls are given as the source filed them. No stated cut-off is given here; in the data, active = GI50 up to about 1.1 µM and inactive = higher.
Permitted responses: active, inactive

See these solved cases before continuing.
COMPOUND	ANSWER LABEL
CCOc1ccc(/C=C(\Cl)c2ccc(OC)c(OC)c2)cc1	inactive
COc1ccc([S+]([O-])Cc2cc(OC)ccc2OC)cc1 (stereo not given)	inactive
O=C(CCSC1=NCCCN1)c1ccc(F)cc1	inactive
Cc1[nH]c(=O)nc(N/N=C/c2ccc(O)cc2)c1C(=O)Nc1ccc(Cl)cc1	inactive
C[N+](C)(C)CC(=O)N/N=C(/Cc1nc2ccc(Cl)cc2nc1O)C1=NS(=O)(=O)c2cc(S(N)(=O)=O)c(Cl)cc2N1	inactive

### Prompt Please state the recorded outcome for this compound: CSc1nc2c3ccccc3ccn2c1C(=O)N/N=C/c1ccccc1
### Response inactive

### Prompt # repeat for CN(C)CCCNC(=O)N/N=C/c1ccc([N+](=O)[O-])cc1
### Response inactive

### Prompt Could you do the same for N#Cc1c(-c2ccc(Cl)cc2)cc(-c2ccc(Nc3ccnc4cc(Cl)ccc34)cc2)nc1N , please?
### Response inactive

### Prompt Please answer likewise for O=C1/C(=C/c2cccc([N+](=O)[O-])c2)COc2ccc(Br)cc21
### Response inactive

### Prompt Now this one: COc1ccc2oc(-c3ccc(OC)c(OC)c3OC)cc(=O)c2c1
### Response inactive

### Prompt Follow-up item: O=C1NC(=O)C2(CCC(O)C2)c2cc[n+]([O-])cc21 (stereo not given)
### Response inactive

### Prompt Same again, this time with C=CC[C@]1(C2=NC(C)(C)CO2)c2ccccc2-c2ccccc2[C@H]1C(C)=O
### Response inactive

###

Tested on: DMS-273
Experiment: NCI tumour cell line growth inhibition, 48 h
The source made the active and inactive calls. No stated cut-off is given here; in the data, active = GI50 up to about 1.1 µM and inactive = higher.
The categories you may choose from are active, inactive

Here are 2 compounds together with their reported answers.
COMPOUND	ANSWER LABEL
COc1cc2c(c3oc(-c4ccc5c(c4)OCO5)c(O)c(=O)c13)CCC(C)(C)O2	inactive
CCCCCCCCCCCCCC(=O)OCC1OC(OC)C(NC(=O)N(CCCl)N=O)C(O)C1O (stereo not drawn)	inactive

### Prompt // outcome(item) with item = COc1cc2c(c(OC)c1OC)-c1ccc(SC)c(=O)cc1[C@@H](NCc1cccc([N+](=O)[O-])c1)CC2
### Response active
